STUDY_SYSTEM: Fes (UniProt P07332)
Sequence (P07332 whole entry, looked up): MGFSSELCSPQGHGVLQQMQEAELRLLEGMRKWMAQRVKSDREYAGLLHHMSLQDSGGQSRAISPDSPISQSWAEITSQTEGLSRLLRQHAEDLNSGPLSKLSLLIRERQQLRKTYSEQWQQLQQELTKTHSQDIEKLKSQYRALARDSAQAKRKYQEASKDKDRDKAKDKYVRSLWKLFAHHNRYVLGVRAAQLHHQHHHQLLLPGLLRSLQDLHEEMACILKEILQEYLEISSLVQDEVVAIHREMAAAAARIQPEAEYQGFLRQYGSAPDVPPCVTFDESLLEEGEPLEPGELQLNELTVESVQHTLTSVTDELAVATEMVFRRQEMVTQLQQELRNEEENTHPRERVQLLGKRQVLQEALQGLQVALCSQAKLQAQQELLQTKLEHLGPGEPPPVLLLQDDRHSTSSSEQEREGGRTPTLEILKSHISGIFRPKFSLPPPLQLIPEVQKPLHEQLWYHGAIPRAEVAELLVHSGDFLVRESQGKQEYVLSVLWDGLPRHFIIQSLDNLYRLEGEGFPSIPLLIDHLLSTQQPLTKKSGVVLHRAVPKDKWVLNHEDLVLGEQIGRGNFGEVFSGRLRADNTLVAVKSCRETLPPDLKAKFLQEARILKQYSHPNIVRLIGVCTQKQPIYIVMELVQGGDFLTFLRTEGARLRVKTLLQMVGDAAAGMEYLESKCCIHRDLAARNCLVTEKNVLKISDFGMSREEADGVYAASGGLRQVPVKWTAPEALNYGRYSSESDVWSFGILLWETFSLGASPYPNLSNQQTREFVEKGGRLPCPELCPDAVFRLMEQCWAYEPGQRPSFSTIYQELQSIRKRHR
EXPERIMENTAL_DETAILS: phosphorylation enrichment, bacterial display (enrichment ratio); higher = better substrate or ligand; peptides without Tyr show the background;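 note: 11-residue human phosphosite peptides and single-mutation variants displayed on the E. coli surface, counted by deep sequencing, each peptide's frequency after selection divided by its frequency in the unselected input library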;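 note: frequency after pTyr selection over input frequency; kinase dosed for 20-30% of maximal phosphorylation in three min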
ASSAY_READOUT: phosphorylation enrichment

>  <SEQUENCE>
SDGHEYIYVDP [PDGFRB_Y579]

>  <STUDY_SYSTEM>
Fes (UniProt P07332)

>  <ASSAY_READOUT>
phosphorylation enrichment

>  <TEST_RESULT>
0.988

$$$$
>  <SEQUENCE>
SLTRLCVGENA [NLRP3_Y861_Y861C]

>  <STUDY_SYSTEM>
Fes (UniProt P07332)

>  <ASSAY_READOUT>
phosphorylation enrichment

>  <TEST_RESULT>
1

$$$$
>  <SEQUENCE>
FGSIMYEFVGK [SLC18A1_Y251_V249I]

>  <STUDY_SYSTEM>
Fes (UniProt P07332)

>  <ASSAY_READOUT>
phosphorylation enrichment

>  <TEST_RESULT>
0.983

$$$$
